Tested on: Mus musculus
Assay: Percent increase in life span at dose 8 mg/kg/day in 10 mice implanted with P388 leukemia cell line
Format: functional
Measured ILS at 8 mg/kg/day values are reported for all entries that follow.

smiles.entry	target	value.relation.sign	ILS at 8 mg/kg/day, %
CC[C@H](C)[C@H](NC(=O)[C@@]1(O)[C@H](O)[C@]2(CC)C=CCN3CC[C@@]4(c5cc([C@@]6(C(=O)OC)C[C@H]7C[N@](CCc8c6[nH]c6ccccc86)C[C@](O)(CC)C7)c(OC)cc5N(C)[C@@]14C)[C@@H]32)C(=O)OC	Mus musculus	=	149
CC[C@]1(O)C[C@@H]2CN(CCc3c([nH]c4ccccc34)[C@@](C(=O)OC)(c3cc4c(cc3OC)N(C)[C@H]3[C@@](O)(C(=O)OC)[C@H](OC(C)=O)[C@]5(CC)C=CCN6CC[C@]43[C@@H]65)C2)C1	Mus musculus	=	72.9
CCOC(=O)[C@@H](NC(=O)[C@@]1(O)[C@H](O)[C@]2(CC)C=CCN3CC[C@@]4(c5cc([C@@]6(C(=O)OC)C[C@H]7C[N@](CCc8c6[nH]c6ccccc86)C[C@](O)(CC)C7)c(OC)cc5N(C)[C@@]14C)[C@@H]32)[C@@H](C)CC	Mus musculus	>	183

###

Experiment: Acute iv toxicity against Swiss strain of 40 mice after 4 doses of injection
Type: organism-based
Conditions: mouse, in vivo
Measured LD50 values are reported for all entries that follow.

compound	LD50 / mg/kg
CC[C@]1(O)C[C@@H]2CN(CCc3c([nH]c4ccccc34)[C@@](C(=O)OC)(c3cc4c(cc3OC)N(C)[C@H]3[C@@](O)(C(=O)OC)[C@H](OC(C)=O)[C@]5(CC)C=CCN6CC[C@]43[C@@H]65)C2)C1 [VINBLASTINE]	26
CCOC(=O)[C@H](Cc1c[nH]c2ccccc12)NC(=O)[C@@]1(O)[C@H](O)[C@]2(CC)C=CCN3CC[C@@]4(c5cc([C@@]6(C(=O)OC)C[C@H]7C[N@](CCc8c6[nH]c6ccccc86)C[C@](O)(CC)C7)c(OC)cc5N(C)[C@@]14C)[C@@H]32	94

###

Assay: Acute iv toxicity against Swiss strain of 100 mice after 8 doses of injection
Type: organism-based
Details: mouse, in vivo

smiles.entry	LD50
CC[C@]1(O)C[C@@H]2CN(CCc3c([nH]c4ccccc34)[C@@](C(=O)OC)(c3cc4c(cc3OC)N(C)[C@H]3[C@@](O)(C(N)=O)[C@H](O)[C@]5(CC)C=CCN6CC[C@]43[C@@H]65)C2)C1	13.8 mg/kg

###

Measured LD50 values are reported for all entries that follow.
Experiment: Acute iv toxicity against mice after a dose of injection
Type: organism-based
Details: mouse, in vivo

compound	units.label	LD50
CC[C@]1(O)C[C@H]2CN(CCc3c([nH]c4ccccc34)[C@@](C(=O)OC)(c3cc4c(cc3OC)N(C=O)[C@H]3[C@@](O)(C(=O)OC)[C@H](OC(C)=O)[C@]5(CC)C=CCN6CC[C@]43[C@@H]65)C2)C1 [VINCRISTINE]	mg/kg	1
CC[C@]1(O)C[C@@H]2CN(CCc3c([nH]c4ccccc34)[C@@](C(=O)OC)(c3cc4c(cc3OC)N(C)[C@H]3[C@@](O)(C(=O)OC)[C@H](OC(C)=O)[C@]5(CC)C=CCN6CC[C@]43[C@@H]65)C2)C1 [VINBLASTINE]	mg/kg	10
CC[C@]1(O)C[C@@H]2CN(CCc3c([nH]c4ccccc34)[C@@](C(=O)OC)(c3cc4c(cc3OC)N(C)[C@H]3[C@@](O)(C(N)=O)[C@H](O)[C@]5(CC)C=CCN6CC[C@]43[C@@H]65)C2)C1 [VINDESINE]	mg/kg	6.3

###

Assay: Acute iv toxicity against CD1 strain of 40 mice after 4 doses of injection
Assay type: organism-based
Conditions: CD1, mouse, in vivo
Measured LD50 values are reported for all entries that follow.

smiles.entry	LD50, mg/kg
CCOC(=O)[C@H](Cc1c[nH]c2ccccc12)NC(=O)[C@@]1(O)[C@H](O)[C@]2(CC)C=CCN3CC[C@@]4(c5cc([C@@]6(C(=O)OC)C[C@H]7C[N@](CCc8c6[nH]c6ccccc86)C[C@](O)(CC)C7)c(OC)cc5N(C)[C@@]14C)[C@@H]32	110
CC[C@]1(O)C[C@@H]2CN(CCc3c([nH]c4ccccc34)[C@@](C(=O)OC)(c3cc4c(cc3OC)N(C)[C@H]3[C@@](O)(C(=O)OC)[C@H](OC(C)=O)[C@]5(CC)C=CCN6CC[C@]43[C@@H]65)C2)C1	28

###

Measured ILS at 5 mg/kg/day values are reported for all entries that follow.
Tested on: Mus musculus
Assay: Percent increase in life span at dose 5 mg/kg/day in 10 mice implanted with P388 leukemia cell line
Type: functional

molecule	ILS at 5 mg/kg/day (%)
CCOC(=O)[C@@H](NC(=O)[C@@]1(O)[C@H](O)[C@]2(CC)C=CCN3CC[C@@]4(c5cc([C@@]6(C(=O)OC)C[C@H]7C[N@](CCc8c6[nH]c6ccccc86)C[C@](O)(CC)C7)c(OC)cc5N(C)[C@@]14C)[C@@H]32)C(C)C	17.2
CC[C@]1(O)C[C@@H]2CN(CCc3c([nH]c4ccccc34)[C@@](C(=O)OC)(c3cc4c(cc3OC)N(C)[C@H]3[C@@](O)(C(=O)OC)[C@H](OC(C)=O)[C@]5(CC)C=CCN6CC[C@]43[C@@H]65)C2)C1 [VINBLASTINE]	47.1
CCOC(=O)[C@H](C)NC(=O)[C@@]1(O)[C@H](O)[C@]2(CC)C=CCN3CC[C@@]4(c5cc([C@@]6(C(=O)OC)C[C@H]7C[N@](CCc8c6[nH]c6ccccc86)C[C@](O)(CC)C7)c(OC)cc5N(C)[C@@]14C)[C@@H]32	27.6
CC[C@]1(O)C[C@@H]2CN(CCc3c([nH]c4ccccc34)[C@@](C(=O)OC)(c3cc4c(cc3OC)N(C)[C@H]3[C@@](O)(C(N)=O)[C@H](O)[C@]5(CC)C=CCN6CC[C@]43[C@@H]65)C2)C1 [VINDESINE]	30.2
CCOC(=O)[C@@H](NC(=O)[C@@]1(O)[C@H](O)[C@]2(CC)C=CCN3CC[C@@]4(c5cc([C@@]6(C(=O)OC)C[C@H]7C[N@](CCc8c6[nH]c6ccccc86)C[C@](O)(CC)C7)c(OC)cc5N(C)[C@@]14C)[C@@H]32)[C@@H](C)CC	60.4
CCOC(=O)[C@H](CO)NC(=O)[C@@]1(O)[C@H](O)[C@]2(CC)C=CCN3CC[C@@]4(c5cc([C@@]6(C(=O)OC)C[C@H]7C[N@](CCc8c6[nH]c6ccccc86)C[C@](O)(CC)C7)c(OC)cc5N(C)[C@@]14C)[C@@H]32	16

###

Assay: Acute iv toxicity against rat after a dose of injection
Type: organism-based
Settings: in vivo
Measured LD50 values are reported for all entries that follow.

smiles.entry	LD50
CC[C@]1(O)C[C@@H]2CN(CCc3c([nH]c4ccccc34)[C@@](C(=O)OC)(c3cc4c(cc3OC)N(C)[C@H]3[C@@](O)(C(=O)OC)[C@H](OC(C)=O)[C@]5(CC)C=CCN6CC[C@]43[C@@H]65)C2)C1	2.9 mg/kg
CC[C@]1(O)C[C@H]2CN(CCc3c([nH]c4ccccc34)[C@@](C(=O)OC)(c3cc4c(cc3OC)N(C=O)[C@H]3[C@@](O)(C(=O)OC)[C@H](OC(C)=O)[C@]5(CC)C=CCN6CC[C@]43[C@@H]65)C2)C1	1 mg/kg
CC[C@]1(O)C[C@@H]2CN(CCc3c([nH]c4ccccc34)[C@@](C(=O)OC)(c3cc4c(cc3OC)N(C)[C@H]3[C@@](O)(C(N)=O)[C@H](O)[C@]5(CC)C=CCN6CC[C@]43[C@@H]65)C2)C1	2.6 mg/kg

###

System: Mus musculus
Experiment: Percent increase in life span of DBA2 mice after inoculation with L1210 leukemia intravenously at a dose of 7 mg/kg per day
Assay type: functional
Conditions: route intravenous

compound	target	ILS at 7 mg/kg/day [%]
CC[C@]1(O)C[C@@H]2CN(CCc3c([nH]c4ccccc34)[C@@](C(=O)OC)(c3cc4c(cc3OC)N(C)[C@H]3[C@@](O)(C(N)=O)[C@H](O)[C@]5(CC)C=CCN6CC[C@]43[C@@H]65)C2)C1 [VINDESINE]	Mus musculus	-9.1
CCOC(=O)[C@@H](NC(=O)[C@@]1(O)[C@H](O)[C@]2(CC)C=CCN3CC[C@@]4(c5cc([C@@]6(C(=O)OC)C[C@H]7C[N@](CCc8c6[nH]c6ccccc86)C[C@](O)(CC)C7)c(OC)cc5N(C)[C@@]14C)[C@@H]32)[C@@H](C)CC	Mus musculus	27
CC[C@]1(O)C[C@@H]2CN(CCc3c([nH]c4ccccc34)[C@@](C(=O)OC)(c3cc4c(cc3OC)N(C)[C@H]3[C@@](O)(C(=O)OC)[C@H](OC(C)=O)[C@]5(CC)C=CCN6CC[C@]43[C@@H]65)C2)C1 [VINBLASTINE]	Mus musculus	35
CC[C@H](C)[C@H](NC(=O)[C@@]1(O)[C@H](O)[C@]2(CC)C=CCN3CC[C@@]4(c5cc([C@@]6(C(=O)OC)C[C@H]7C[N@](CCc8c6[nH]c6ccccc86)C[C@](O)(CC)C7)c(OC)cc5N(C)[C@@]14C)[C@@H]32)C(=O)OC	Mus musculus	64

Origin of measurements: ChEMBL document CHEMBL1122917
